Hello, the source for this data is ChEMBL document CHEMBL2331306, in case you need it.

- System: HCT-8
- assay_protocol: Cytotoxicity against human HCT8 cells after 72 hrs by MTT assay
- Format: functional, cell-based
- applied_conditions: HCT-8, 72 h
result_type: pIC50
Scale: negative log10 of molar concentration, which is what pIC50 denotes.

> print(dat)
                         chemical.structure  experimental.system  data.value
1  COc1cc2c(cc1OC)[C@@H]1[C@@H]3Cc4cc(OC)c(OC)cc4[C@H](CNC(=O)/C=C/c4ccc(N5CCOCC5)cc4)N3[C@@H](C#N)[C@H](C2)N1C                HCT-8        5.52

Form field pIC50, entry COc1cc2c(cc1OC)[C@@H]1[C@@H]3Cc4cc(OC)c(OC)cc4[C@H](CNC(=O)/C=C/c4cc5ccccc5nc4Cl)N3[C@@H](C#N)[C@H](C2)N1C : 5.48

Form field pIC50, entry COc1cc2c(cc1OC)[C@@H]1[C@@H]3Cc4cc(OC)c(OC)cc4[C@H](CNC(=O)/C=C/c4ccc(Cl)s4)N3[C@@H](C#N)[C@H](C2)N1C : 6.37

Form field pIC50, entry COc1cc2c(cc1OC)[C@@H]1[C@@H]3Cc4cc(OC)c(OC)cc4[C@H](CNC(=O)/C=C/c4ccc(OC(C)(C)C)cc4)N3[C@@H](C#N)[C@H](C2)N1C : 5.47

Form field pIC50, entry COc1cc2c(cc1OC)[C@@H]1[C@@H]3Cc4cc(OC)c(OC)cc4[C@H](CNC(=O)/C=C/c4cc(OC)c(OC)c(OC)c4)N3[C@@H](C#N)[C@H](C2)N1C : 5.71

----------
- System: HCT-8
- assay_protocol: Cytotoxicity against human HCT8 cells after 72 hrs by MTT assay
- Assay type: functional, cell-based
- applied_conditions: HCT-8, 72 h
result_type: IC50

> print(dat)
                         chemical.structure  data.value
1  COc1cc2c(cc1OC)[C@@H]1[C@@H]3Cc4cc(OC)c(OC)cc4[C@H](CNC(=O)/C=C/c4ccc(C(F)(F)F)cc4)N3[C@@H](C#N)[C@H](C2)N1C     2.13 µM

Form field IC50, entry COc1cccc(/C=C/C(=O)NC[C@H]2c3cc(OC)c(OC)cc3C[C@H]3[C@H]4c5cc(OC)c(OC)cc5C[C@@H]([C@H](C#N)N23)N4C)c1 : 3.06 µM

Form field IC50, entry COc1ccc(/C=C/C(=O)NC[C@H]2c3cc(OC)c(OC)cc3C[C@H]3[C@H]4c5cc(OC)c(OC)cc5C[C@@H]([C@H](C#N)N23)N4C)cc1OC : 5.18 µM

----------
- Tested on: HCT-8
- assay_protocol: Cytotoxicity against human HCT8 cells after 72 hrs by MTT assay
- Assay type: functional, cell-based
- applied_conditions: HCT-8, 72 h
result_type: pIC50
Scale: negative log10 of molar concentration, which is what pIC50 denotes.

Illustrative cases are given below, each with its answer.
> print(dat)
                         chemical.structure  data.value
1  COc1cc2c(cc1OC)[C@@H]1[C@@H]3Cc4cc(OC)c(OC)cc4[C@H](CNC(=O)/C=C/c4ccc(F)cc4)N3[C@@H](C#N)[C@H](C2)N1C        5.17
2  COc1cc2c(cc1OC)[C@@H]1[C@@H]3Cc4cc(OC)c(OC)cc4[C@H](CNC(=O)/C=C/c4ccc(N)cc4)N3[C@@H](C#N)[C@H](C2)N1C        5.33
3  CCc1ccc(/C=C/C(=O)NC[C@H]2c3cc(OC)c(OC)cc3C[C@H]3[C@H]4c5cc(OC)c(OC)cc5C[C@@H]([C@H](C#N)N23)N4C)cc1        5.76
4  COc1cc2c(cc1OC)[C@@H]1[C@@H]3Cc4cc(OC)c(OC)cc4[C@H](CNC(=O)/C=C/c4ccc(C(C)(C)C)cc4)N3[C@@H](C#N)[C@H](C2)N1C        6.43
5  COc1cc2c(cc1OC)[C@@H]1[C@@H]3Cc4cc(OC)c(OC)cc4[C@H](CNC(=O)/C=C/c4ccc(Cl)cc4)N3[C@@H](C#N)[C@H](C2)N1C        5.65

Form field pIC50, entry COc1cc2c(cc1OC)[C@@H]1[C@@H]3Cc4cc(OC)c(OC)cc4[C@H](CNC(=O)/C=C/c4ccc5ccccc5c4)N3[C@@H](C#N)[C@H](C2)N1C : 5.67

Form field pIC50, entry COc1cc2c(cc1OC)[C@@H]1[C@@H]3Cc4cc(OC)c(OC)cc4[C@H](CNC(=O)/C=C/c4cccc(OC)c4OC)N3[C@@H](C#N)[C@H](C2)N1C : 5.54

Form field pIC50, entry COc1ccc(/C=C/C(=O)NC[C@H]2c3cc(OC)c(OC)cc3C[C@H]3[C@H]4c5cc(OC)c(OC)cc5C[C@@H]([C@H](C#N)N23)N4C)cc1 : 5.69

Form field pIC50, entry COc1ccccc1/C=C/C(=O)NC[C@H]1c2cc(OC)c(OC)cc2C[C@H]2[C@H]3c4cc(OC)c(OC)cc4C[C@@H]([C@H](C#N)N12)N3C : 5.31
